systemTested: human EGFR exon 20 insertion ASV (V769_D770insASV) (Homo sapiens (Human), UniProt P00533, INS769ASV)
Sequence (P00533 other isoform, or with tags, fused parts or gaps ins ASV behind 769): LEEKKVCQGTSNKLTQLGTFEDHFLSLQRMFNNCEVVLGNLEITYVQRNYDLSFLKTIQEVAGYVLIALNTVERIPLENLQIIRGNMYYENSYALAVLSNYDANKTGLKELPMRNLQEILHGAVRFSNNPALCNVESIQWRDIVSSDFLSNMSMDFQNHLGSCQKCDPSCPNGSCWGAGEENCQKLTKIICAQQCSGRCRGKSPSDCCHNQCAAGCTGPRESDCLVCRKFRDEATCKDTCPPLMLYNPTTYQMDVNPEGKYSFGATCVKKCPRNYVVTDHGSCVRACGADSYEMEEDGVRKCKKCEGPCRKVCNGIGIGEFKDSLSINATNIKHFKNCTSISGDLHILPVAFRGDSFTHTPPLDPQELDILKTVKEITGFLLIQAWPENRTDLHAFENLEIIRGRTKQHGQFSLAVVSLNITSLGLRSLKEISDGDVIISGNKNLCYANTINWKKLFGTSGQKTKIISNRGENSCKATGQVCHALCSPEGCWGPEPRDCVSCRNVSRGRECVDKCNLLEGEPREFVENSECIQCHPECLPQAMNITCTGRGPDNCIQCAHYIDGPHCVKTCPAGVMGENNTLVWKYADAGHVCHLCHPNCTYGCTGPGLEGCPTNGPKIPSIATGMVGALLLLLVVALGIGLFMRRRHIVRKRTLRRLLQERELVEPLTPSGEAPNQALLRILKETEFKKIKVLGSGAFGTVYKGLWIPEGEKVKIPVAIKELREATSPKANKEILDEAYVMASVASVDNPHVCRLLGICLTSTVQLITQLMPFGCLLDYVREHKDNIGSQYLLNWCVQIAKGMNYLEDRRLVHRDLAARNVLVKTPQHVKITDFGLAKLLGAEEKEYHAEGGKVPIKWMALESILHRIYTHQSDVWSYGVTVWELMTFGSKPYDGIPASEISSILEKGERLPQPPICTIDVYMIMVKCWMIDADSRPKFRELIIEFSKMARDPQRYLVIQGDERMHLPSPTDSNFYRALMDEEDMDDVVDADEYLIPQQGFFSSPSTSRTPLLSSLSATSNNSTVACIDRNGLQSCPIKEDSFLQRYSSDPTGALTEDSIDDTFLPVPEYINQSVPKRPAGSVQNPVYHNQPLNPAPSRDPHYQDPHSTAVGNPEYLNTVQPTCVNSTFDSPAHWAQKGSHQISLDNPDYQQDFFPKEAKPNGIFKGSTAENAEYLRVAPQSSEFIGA
assayRemarks: Ba/F3-EGFR-Exon20-ASV cell anti-proliferative assay (CellTiter 96 MTS, 72 h);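 note: Ba/F3 cells bearing the EGFR exon 20 ASV insertion, a line able to proliferate without IL-3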
conditionInfo: Ba/F3-EGFR-Exon20-ASV cells
pIC50: −log10 of the molar value.
molecules and their reported pIC50

C=CC(=O)Nc1cc(Nc2nccc(-c3cn(C)c4ccccc34)n2)c(OC)cc1N(C)CCNC    6.30 to 7.00

// sample C=CC(=O)Nc1cc(Nc2ncc(C(=O)OC(C)C)c(-c3cn(C)c4ccccc34)n2)c(OC)cc1N(C)CC1CCCN1C (centres unmarked) , its pIC50 was > 7.00

// sample `C=CC(=O)Nc1cc(Nc2ncc(C(=O)OC(C)C)c(-c3cnn4ccccc34)n2)c(OC)cc1N(C)CCN(C)C` , its pIC50 was > 7.00

// sample `C=CC(=O)Nc1cc(Nc2ncc(C(=O)OC(C)C)c(-c3cn(C)c4ccccc34)n2)c(OC)cc1N(C)C[C@H]1CCCN1C` , its pIC50 was > 7.00

// sample `C=CC(=O)Nc1ccc(OC)c(Nc2ncc(C#N)c(-c3cn(C)c4cc(OCCN5CCCC5)ccc34)n2)c1` , its pIC50 was 6.30 to 7.00

// sample `C=CC(=O)Nc1cc(Nc2nccc(-c3c(C#N)n(C)c4ccccc34)n2)c(OC)cc1N(C)CCN(C)C` , its pIC50 was > 7.00

// sample `C=CC(=O)Nc1cc(Nc2nccc(-c3cn(C)c4c(C(=O)OC(C)C)cccc34)n2)c(OC)cc1N(C)CCN(C)C` , its pIC50 was 6.30 to 7.00

// sample `C=CC(=O)Nc1cc(Nc2ncc(C(=O)OC)c(-c3cn(N(C)C)c4ccccc34)n2)c(OC)cc1N(C)CCN(C)C` , its pIC50 was > 7.00
